Activity overview
test: Cell cycle arrest in KB/HeLa cells by accumulation at G2/M phase at 316 nM; format: functional, cell-based; conditions: Homo sapiens
Could you give me the number in %? Just the number is fine.

// worked examples, Activity included
COc1cc2c(c(OC)c1OC)-c1ccc(OC)c(=O)cc1[C@@H](NC(C)=O)CC2; 94.5
COC(=O)Nc1nc2cc(C(=O)c3cccs3)ccc2[nH]1; 93.2
CC[C@]1(O)C[C@H]2CN(CCc3c([nH]c4ccccc34)[C@@](C(=O)OC)(c3cc4c(cc3OC)N(C=O)[C@H]3[C@@](O)(C(=O)OC)[C@H](OC(C)=O)[C@]5(CC)C=CCN6CC[C@]43[C@@H]65)C2)C1; 93.8
COc1cc(/C=C2/c3ccccc3C(=O)c3ccsc32)cc(OC)c1O; 89.5

Let's switch to this compound now.
Would you kindly share the measured Activity for CC(=O)O[C@H]1C(=O)[C@@]2(C)[C@H]([C@H](OC(=O)c3ccccc3)[C@]3(O)C[C@H](OC(=O)[C@H](O)[C@@H](NC(=O)c4ccccc4)c4ccccc4)C(C)=C1C3(C)C)[C@]1(OC(C)=O)CO[C@@H]1C[C@@H]2O ?
90.8
